Cited source for all entries: the RepoRT retention time repository

Test: Waters ACQUITY UPLC BEH C18, 50 × 2.1 mm, 1.7 µm, 30 °C, 0.3 mL/min, estimated dead time 0.37 min; A: water + 0.3% formic acid; B: acetonitrile; gradient (min/%B) 0.5/5 3.5/20 5.5/25 7/57 8/90
Details: stereoisomer not certain
measurement kind: LC retention time (min)
One number for each entry, in min.

CC1NCCOC1c1ccccc1 (configuration not stated) | 2.51

# batch: return LC retention time for each of the 5 molecules below
1. NC(CC(O)COc1cccc2ccccc12)=NO (configuration not stated)
2. CC12CCC(=O)C=C1CCC1C2C(=O)CC2(C)C1CCC2(O)C(=O)CO (configuration not stated)
3. N=C1NC(=O)C(c2ccccc2)O1 (configuration not stated)
4. O=C(c1ccc(OCCN2CCCCC2)cc1)c1c(-c2ccc(O)cc2)sc2cc(O)ccc12
5. O=C(O)CS(=O)C(c1ccccc1)c1ccccc1 (configuration not stated)

1. 4.76
2. 6.31
3. 2.7
4. 6.58
5. 6.69

---

Provide the recorded LC retention time for the entries that follow.
Assay: Waters ACQUITY UPLC BEH C18, 50 × 2.1 mm, 1.7 µm, 30 °C, 0.3 mL/min, estimated dead time 0.37 min; A: water + 0.3% formic acid; B: acetonitrile; gradient (min/%B) 0.5/5 3.5/20 5.5/25 7/57 8/90
Conditions: stereoisomer not certain
One number for each entry, in min.

Answered examples (6):
CC(Cc1ccccc1)N(C)C (stereo not drawn) | 2.76
CCNC1C2CCC(C2)C1c1ccccc1 (stereo not drawn) | 4.97
CC1(O)CCC2C3CCC4=CC(=O)CCC4=C3C=CC21C (stereo not drawn) | 7.12
CC(C)NC1CCn2c(=O)[nH]c3cccc(c32)C1O (stereo not drawn) | 1.43
Nc1nc(N)c2nc(-c3ccccc3)c(N)nc2n1 | 3
CN1CCC23c4c5ccc(O)c4OC2C(=O)CCC3C1C5 (stereo not drawn) | 1.48

Batch lookup, LC retention time per entry.
1. CC(Cc1ccccc1)N(C)Cc1ccco1 (stereo not drawn)
2. CC(Cc1ccccc1)NCCC#N (stereo not drawn)
3. CC=CC(=O)N(CC)C(CC)C(=O)N(C)C (stereo not drawn)
4. CCN(CC)C(C)C(=O)c1ccccc1 (stereo not drawn)
5. CC(C)(C#N)c1cc(Cn2cncn2)cc(C(C)(C)C#N)c1

1: 4.46; 2: 2.77; 3: 4.55; 4: 2.73; 5: 6.91

For each of the items listed, what is its LC retention time?
1. CCC(=O)C(CC(C)N(C)C)(c1ccccc1)c1ccccc1 (stereo not drawn)
2. CNC(C)Cc1ccccc1OC (stereo not drawn)

[7.03, 3.3]

---

Test: Waters ACQUITY UPLC BEH C18, 50 × 2.1 mm, 1.7 µm, 30 °C, 0.3 mL/min, estimated dead time 0.37 min; A: water + 0.3% formic acid; B: acetonitrile; gradient (min/%B) 0.5/5 3.5/20 5.5/25 7/57 8/90
Conditions: stereoisomer not certain
Give measured log10 LC retention time for each item. Keep answers brief.
Use the decimal logarithm of LC retention time (min).

Worked set:
O=C(O)C(c1ccccc1)C1CCCCN1 (centres undefined) | 0.51
CC(C)NCC(O)COc1cccc2ccccc12 (centres undefined) | 0.76
CNC(C)Cc1ccc2c(c1)OCO2 (centres undefined) | 0.44
CC12C=CC(=O)C=C1CCC1C2C(=O)CC2(C)C1CCC2(O)C(=O)CO (centres undefined) | 0.79
COCCc1ccc(OCC(O)CNC(C)C)cc1 (centres undefined) | 0.58
CCCN(CCC)S(=O)(=O)c1ccc(C(=O)O)cc1 | 0.88

For the 3 compounds below, give their log10 LC retention time values.
1. CC(Cc1ccc(O)cc1)NCC(O)c1cc(O)cc(O)c1 (centres undefined)
2. CC(N)CCCC(C)(C)O (centres undefined)
3. CC=CC(=O)N(CCC)C(CC)C(=O)N(C)C (centres undefined)

0.35
0.11
0.77

Could you tell me log10 LC retention time for each of these compounds? They are listed below.
1. C#CC1(O)CCC2C3CCC4=CC(=O)CCC4=C3C=CC21CC (centres undefined)
2. OC(c1ccccc1)(c1ccccc1)C1CCCCN1 (centres undefined)
3. CCN(CC)C(=O)c1ccc(O)c(OC)c1
4. CCOC(=O)C1(c2ccccc2)CCN(C)CC1
5. CCNCC(O)c1cccc(O)c1 (centres undefined)
6. CC(C)(C)NCC(O)c1ccc(O)c(CO)c1 (centres undefined)
7. CC(CN1CCOCC1)C(C(=O)N1CCCC1)(c1ccccc1)c1ccccc1 (centres undefined)
8. CNC(C)Cc1ccc(O)cc1 (centres undefined)

[0.87, 0.68, 0.68, 0.65, -0.04, 0.16, 0.84, 0.09]

I need log10 LC retention time for every entry listed below, if you could help.
1. CC12C=CC(=O)C=C1CCC1C2C(O)CC2(C)C1CCC2(O)C(=O)CO (centres undefined)
2. C=CCc1ccccc1OCC(O)CNC(C)C (centres undefined)
3. CC(Cc1ccccc1)NCCn1cnc2c1c(=O)n(C)c(=O)n2C (centres undefined)
4. CNC(C)C(O)c1ccc(O)cc1 (centres undefined)
5. COc1ccc2c3c1OC1C(O)C=CC4C(C2)N(C)CCC341 (centres undefined)
6. CNC(C)Cc1ccccc1 (centres undefined)
7. O=C1NC(=NC2CC2)OC1c1ccccc1 (centres undefined)

1: 0.79; 2: 0.77; 3: 0.60; 4: -0.19; 5: 0.33; 6: 0.41; 7: 0.68

Provide the reported log10 LC retention time of each entry below, same order.
1. C#CC1(O)CCC2C3CCC4=Cc5oncc5CC4(C)C3CCC21C (centres undefined)
2. Cc1cc2c(OCC(CNC(C)(C)C)OC(=O)c3ccccc3)cccc2[nH]1 (centres undefined)
3. CC(N)Cc1ccc2c(c1)OCO2 (centres undefined)
4. Cc1ccccc1CC(C)N (centres undefined)
5. CC(C)(C)NCC(O)COc1nsnc1N1CCOCC1 (centres undefined)

[0.91, 0.84, 0.40, 0.51, 0.56]
